test system: Tov112D; experiment: Primary qHTS to identify gynecologic anti-cancer compounds using libraries of approved drugs and bioactive compounds (AID 1345084); details: Gynecologic cancer cell panel viability, ATPlite luminescence, 48 h; series mostly up to 57.5 µM; note: nearly all actives have a fitted effect of over 55% in size
Records with an inconclusive call do not appear. Calls of active or inactive are those of the source. Calls come from the whole dose curve; as a rule, active = well fitted cell-killing curve with a large enough effect; inconclusive = small, poorly fitted or top-dose-only effect, or effect the other way; inactive = flat fitted curve, though single readings scatter.
Allowed answers: class 1 for active, class 0 for inactive

Consider the following illustrative entries.
molecule | category
COC1CC(O[C@H]2CC[C@]3(C=O)C4CC[C@]5(C)[C@@H](C6=CC(=O)OC6)CC[C@]5(O)[C@@H]4CC[C@]3(O)C2)OC(C)C1O[C@@H]1O[C@H](CO)[C@@H](O)[C@H](O)[C@H]1O (stereo partly drawn) | class 1
C[C@@]1(C(=O)O)CC[C@]2(C)CC[C@]3(C)C4=CC(=O)c5cc(O)c(O)cc5[C@]4(C)CC[C@@]3(C)[C@@H]2C1 | class 0

Please look at the following molecule next.
Ask: Fill in: this test's call for CCCCCOc1cc2c(cc1-c1cc(/C=C/C(=O)O)ccc1O)C(C)(C)CCC2(C)C is ___
Result: class 0

# credit: PubChem BioAssay (NCATS)
